Test system: human α7 nAChRs transiently expressed in Xenopus laevis oocytes (Homo sapiens (Human), UniProt P36544)
Sequence (P36544 23-502 limits assumed): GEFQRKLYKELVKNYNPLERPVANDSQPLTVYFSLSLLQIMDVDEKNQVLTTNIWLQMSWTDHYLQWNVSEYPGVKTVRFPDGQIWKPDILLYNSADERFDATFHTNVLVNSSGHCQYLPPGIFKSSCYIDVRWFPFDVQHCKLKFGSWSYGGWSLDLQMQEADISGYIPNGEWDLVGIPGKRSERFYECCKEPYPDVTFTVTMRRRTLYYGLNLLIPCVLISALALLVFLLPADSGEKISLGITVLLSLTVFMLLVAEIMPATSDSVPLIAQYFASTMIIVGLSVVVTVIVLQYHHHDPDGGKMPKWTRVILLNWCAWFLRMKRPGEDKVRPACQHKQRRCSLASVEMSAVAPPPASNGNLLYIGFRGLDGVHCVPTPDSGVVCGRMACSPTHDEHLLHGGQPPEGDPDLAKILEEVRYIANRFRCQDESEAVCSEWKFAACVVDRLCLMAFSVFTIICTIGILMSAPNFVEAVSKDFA
Assay protocol: Oocyte electrophysiology screen (TEVC)
Format: cell-based
Condition label: 0.01 mM test compound, peak current relative to 0.2 mM ACh
Protocol: Oocyte Electrophysiology Screen (% ACh @ 10 μM Oocyte) The Oocyte Electrophysiology Screen studies were performed under contract by HiQScreen Geneva, Switzerland. […] Currents evoked by acetylcholine or other agonist ligands were recorded using the standard two-electrode voltage-clamp configuration (TEVC). […] Data were filtered at 10 Hz, captured at 100 Hz and analyzed using proprietary data acquisition and analysis software running under Matlab (Mathworks Inc.). […]
Where a name gives a salt, the structure may show the parent alone.
Readout name: % ACh @ 10 μM Oocyte (% ACh)
Express it in % ACh; write the number only.

Challenge: Given O=C(N[C@@H]1C2CCN(CC2)C12CC2)c1cc2ccc(Cl)cc2o1 [(R)-163, hydrochloride] , respond with its % ACh @ 10 μM Oocyte.
Response given: 446

Challenge: Given O=C(N[C@@H]1C2CCN(CC2)C12CC2)c1cc2ccsc2cn1 [(R)-97, hydrochloride] , respond with its % ACh @ 10 μM Oocyte.
Response given: 816

Challenge: Given CC1(C)[C@H](NC(=O)c2cc3ccc(Cl)cc3o2)C2CCN1CC2.Cl [(R)-216] , respond with its % ACh @ 10 μM Oocyte.
Response given: 184

Challenge: Given Cc1ccc2sc(C(=O)N[C@H]3C4CCN(CC4)C3(C)C)cc2c1 [(S)-16, hydrochloride] , respond with its % ACh @ 10 μM Oocyte.
Response given: 2

Challenge: Given COc1ccc2cc(C(=O)N[C@@H]3C4CCN(CC4)C34CC4)sc2c1F [(R)-155, hydrochloride] , respond with its % ACh @ 10 μM Oocyte.
Response given: 513

Challenge: Given Nc1ncc2cc(C(=O)N[C@@H]3C4CCN(CC4)C34CC4)sc2n1 [(R)-149, hydrochloride] , respond with its % ACh @ 10 μM Oocyte.
Response given: 195

Challenge: Given CC1(C)[C@H](NC(=O)c2cc3cc(F)ccc3s2)C2CCN1CC2 [(R)-11, hydrochloride] , respond with its % ACh @ 10 μM Oocyte.
Response given: 552

Challenge: Given O=C(N[C@@H]1C2CCN(CC2)C12CC2)c1cc2ccc(C3CCOCC3)cc2s1 [(R)-105, hydrochloride] , respond with its % ACh @ 10 μM Oocyte.
Response given: 2

###

Please respond with reported % ACh @ 10 μM Oocyte for every item in the list.
Test system: UniProtKB P36544
Assay protocol: Oocyte electrophysiology screen (TEVC)
Format: cell-based
Condition label: 0.01 mM test compound, peak current relative to 0.2 mM ACh
Counter-ions that a name gives are not always drawn.
Express it in % ACh; write the number only.

Challenge: Given CC1(C)[C@@H](NC(=O)c2cc3ccc(C(F)(F)F)cc3s2)C2CCN1CC2 [(S)-10, hydrochloride] , respond with its % ACh @ 10 μM Oocyte.
Response given: 1

Challenge: Given Cc1nc2ccc(C(=O)N[C@@H]3C4CCN(CC4)C3(C)C)cc2o1 [(R)-33] , respond with its % ACh @ 10 μM Oocyte.
Response given: 6

Challenge: Given O=C(N[C@@H]1C2CCN(CC2)C12CC2)c1ccc2oc(Cl)cc2c1 [(R)-92, hydrochloride] , respond with its % ACh @ 10 μM Oocyte.
Response given: 532

Challenge: Given O=C(N[C@@H]1C2CCN(CC2)C12CC2)c1ccc2occc2c1 [(R)-59, hydrochloride] , respond with its % ACh @ 10 μM Oocyte.
Response given: 374

###

Test system: human 5-HT3 serotonin receptors (Homo sapiens (Human))
Sequence (P46098 24-478): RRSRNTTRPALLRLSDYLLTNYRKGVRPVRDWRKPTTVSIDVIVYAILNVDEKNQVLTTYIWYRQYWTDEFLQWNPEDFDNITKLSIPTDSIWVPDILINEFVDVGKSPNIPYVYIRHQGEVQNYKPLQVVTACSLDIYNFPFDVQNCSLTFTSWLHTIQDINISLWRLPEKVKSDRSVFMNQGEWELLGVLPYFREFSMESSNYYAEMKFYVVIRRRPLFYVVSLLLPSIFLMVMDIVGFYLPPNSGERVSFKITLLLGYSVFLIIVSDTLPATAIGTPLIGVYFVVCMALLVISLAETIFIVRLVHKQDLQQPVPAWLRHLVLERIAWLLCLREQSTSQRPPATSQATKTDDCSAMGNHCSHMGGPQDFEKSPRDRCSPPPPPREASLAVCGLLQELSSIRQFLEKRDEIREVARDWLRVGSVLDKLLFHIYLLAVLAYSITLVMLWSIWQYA
Assay protocol: [3H]BRL 43694 competition binding
Condition label: CHO cell membranes, [3H]BRL 43694, Cheng Prusoff; read-out: h-5HT3 Ki
Counter-ions that a name gives are not always drawn.
Please respond with reported pKi for every item in the list.
Note: pKi values are expressed as the negative base-10 logarithm of concentration in M.

Challenge: Given O=C(N[C@@H]1C2CCN(CC2)C12CC2)c1cc2cccc(CC(F)(F)F)c2s1 [(R)-177, hydrochloride] , respond with its pKi.
Response given: 6.16

Challenge: Given O=C(N[C@@H]1C2CCN(CC2)C12CC2)c1ccc2occ(Cl)c2c1 [(R)-94, hydrochloride] , respond with its pKi.
Response given: 5.80

Challenge: Given CC1(C)[C@H](NC(=O)c2cc3cccc(Cl)c3o2)C2CCN1CC2.Cl [(R)-217, hydrochloride] , respond with its pKi.
Response given: 5.96

###

Please respond with reported % ACh @ 10 μM Oocyte for every item in the list.
Test system: human α7 nAChRs transiently expressed in Xenopus laevis oocytes (Homo sapiens (Human))
Assay protocol: Oocyte electrophysiology screen (TEVC)
Type: cell-based
Condition label: 0.01 mM test compound, peak current relative to 0.2 mM ACh; hydrochloride
Procedure: Oocyte Electrophysiology Screen (% ACh @ 10 μM Oocyte) The Oocyte Electrophysiology Screen studies were performed under contract by HiQScreen Geneva, Switzerland. […] Currents evoked by acetylcholine or other agonist ligands were recorded using the standard two-electrode voltage-clamp configuration (TEVC). […] Data were filtered at 10 Hz, captured at 100 Hz and analyzed using proprietary data acquisition and analysis software running under Matlab (Mathworks Inc.). […]
Where a name gives a salt, the structure may show the parent alone.
Express it in % ACh; write the number only.

Challenge: Given COc1ccc2sc(C(=O)NC3C4CCN(CC4)C34CC4)cc2c1 (single isomer, unassigned; enantiomer1) [74a, hydrochloride] , respond with its % ACh @ 10 μM Oocyte.
Response given: 32

Challenge: Given O=C(NC1C2CCN(CC2)C12CC2)c1cc2cc(C3CC3)ccc2s1 (single isomer, unassigned; enantiomer1) [72a, hydrochloride] , respond with its % ACh @ 10 μM Oocyte.
Response given: 188

Challenge: Given O=C(NC1C2CCN(CC2)C12CC2)c1cc2ccccc2s1 (single isomer, unassigned; enantiomer1) [54a, hydrochloride] , respond with its % ACh @ 10 μM Oocyte.
Response given: 4.5

Challenge: Given O=C(NC1C2CCN(CC2)C12CC2)c1cc2cc(C(F)(F)F)ccc2s1 (single isomer, unassigned; enantiomer1) [70a, hydrochloride] , respond with its % ACh @ 10 μM Oocyte.
Response given: 2

Challenge: Given O=C(NC1C2CCN(CC2)C12CC2)c1cc2cc(Cl)ccc2s1 (single isomer, unassigned; enantiomer1) [66a, hydrochloride] , respond with its % ACh @ 10 μM Oocyte.
Response given: 2

Challenge: Given O=C(NC1C2CCN(CC2)C12CC2)c1cc2cccc(F)c2s1 (single isomer, unassigned; enantiomer2) [57b, hydrochloride] , respond with its % ACh @ 10 μM Oocyte.
Response given: 4

###

Test system: UniProt P36544
Assay protocol: Oocyte electrophysiology screen (TEVC)
Format: cell-based
Condition label: 0.01 mM test compound, peak current relative to 0.2 mM ACh; hydrochloride
Structures can show the parent of a compound that is named as a salt.
Quick rule for you: % ACh @ 10 μM Oocyte at 200 % ACh or higher means satisfied, lower means not satisfied.

Challenge: Does the reported % ACh @ 10 μM Oocyte for Nc1ccc2cc(C(=O)NC3C4CCN(CC4)C34CC4)sc2c1 (single isomer, unassigned; enantiomer2) [62b, hydrochloride] fall at or above the 200 % ACh mark?
Response given: satisfied

Challenge: Does the reported % ACh @ 10 μM Oocyte for O=C(NC1C2CCN(CC2)C12CC2)c1cc2cc(Cl)ccc2s1 (single isomer, unassigned; enantiomer1) [66b, hydrochloride] fall at or above the 200 % ACh mark?
Response given: not satisfied

Challenge: Does the reported % ACh @ 10 μM Oocyte for Cc1ccc2sc(C(=O)NC3C4CCN(CC4)C34CC4)cc2c1 (single isomer, unassigned; enantiomer1) [69a, hydrochloride] fall at or above the 200 % ACh mark?
Response given: not satisfied

Challenge: Does the reported % ACh @ 10 μM Oocyte for O=C(NC1C2CCN(CC2)C12CC2)c1cc2cc(C(F)(F)F)ccc2s1 (single isomer, unassigned; enantiomer2) [70b, hydrochloride] fall at or above the 200 % ACh mark?
Response given: not satisfied

Challenge: Does the reported % ACh @ 10 μM Oocyte for O=C(NC1C2CCN(CC2)C12CC2)c1cc2ccccc2s1 (single isomer, unassigned; enantiomer2) [54b, hydrochloride] fall at or above the 200 % ACh mark?
Response given: satisfied

Challenge: Does the reported % ACh @ 10 μM Oocyte for CC1(C)C(NC(=O)c2cc3ccccc3s2)C2CCN1CC2 (single isomer, unassigned; enantiomer2) [1b, hydrochloride] fall at or above the 200 % ACh mark?
Response given: not satisfied

Challenge: Does the reported % ACh @ 10 μM Oocyte for O=C(NC1C2CCN(CC2)C12CC2)c1cc2cccc(F)c2s1 (single isomer, unassigned; enantiomer1) [57a, hydrochloride] fall at or above the 200 % ACh mark?
Response given: satisfied

Challenge: Does the reported % ACh @ 10 μM Oocyte for O=C(NC1C2CCN(CC2)C12CC2)c1cc2ccc(C3CC3)cc2s1 (single isomer, unassigned; enantiomer1) [71a, hydrochloride] fall at or above the 200 % ACh mark?
Response given: satisfied

Challenge: Does the reported % ACh @ 10 μM Oocyte for Cc1ccc2cc(C(=O)NC3C4CCN(CC4)C34CC4)sc2c1 (single isomer, unassigned; enantiomer1) [68a, hydrochloride] fall at or above the 200 % ACh mark?
Response given: satisfied

Challenge: Does the reported % ACh @ 10 μM Oocyte for O=C(NC1C2CCN(CC2)C12CC2)c1cc2ccc(Cl)cc2s1 (single isomer, unassigned; enantiomer2) [65b, hydrochloride] fall at or above the 200 % ACh mark?
Response given: not satisfied

Challenge: Does the reported % ACh @ 10 μM Oocyte for Nc1ccc2cc(C(=O)NC3C4CCN(CC4)C34CC4)sc2c1 (single isomer, unassigned; enantiomer1) [62a, hydrochloride] fall at or above the 200 % ACh mark?
Response given: not satisfied

Challenge: Does the reported % ACh @ 10 μM Oocyte for COc1ccc2cc(C(=O)NC3C4CCN(CC4)C34CC4)sc2c1 (single isomer, unassigned; enantiomer1) [73a, hydrochloride] fall at or above the 200 % ACh mark?
Response given: satisfied

The reported measurements were obtained from patent US10183938B2.
